assay: method code SF-AS, from DOI: 10.1248/cpb.28.3673; details: pH 2.0
measured.quantity: logD
# answer = number (no unit)

Asked: Determine its reported logD: CO[C@@]1(NC(=O)C(C(=O)O)c2ccc(O)cc2)C(=O)N2C(C(=O)O)=C(CSc3nnnn3C)CO[C@@H]21 (stereo partly specified)
Given back: -0.58

====

assay: method code SF-AS, from DOI: 10.1248/cpb.26.2832
logP listing for selected compounds.
# answer = number (no unit)

>  <compound>
CC(=O)OCC(=O)[C@@]1(O)CC[C@H]2[C@@H]3CCC4=CC(=O)C=C[C@]4(C)[C@H]3[C@@H](O)C[C@@]21C

>  <value.observed>
2.4

$$$$
>  <compound>
CC(=O)OCC(=O)[C@@]1(O)CC[C@H]2[C@@H]3CCC4=CC(=O)CC[C@]4(C)[C@H]3C(=O)C[C@@]21C

>  <value.observed>
2.1

$$$$
>  <compound>
CCCCC(=O)OC1(C(=O)CO)C(C)CC2C3CCC4=CC(=O)C=CC4(C)C3(F)C(O)CC21C (centres undefined)

>  <value.observed>
3.49

$$$$

Shifting focus to the compound that follows.
Asked: Determine its reported logP: CC(=O)OCC(=O)[C@@]1(O)[C@H](OC(C)=O)C[C@H]2[C@@H]3CCC4=CC(=O)C=C[C@]4(C)[C@@]3(F)[C@@H](O)C[C@@]21C
Given back: 1.92

Provenance of the data: the SangsterLogP compilation
